Entry source: paper PMC8267566

- ASSAYED SYSTEM: hGPR17L-R301H (Homo sapiens, UniProt Q13304, R301H)
- Sequence (Q13304 whole entry R301H): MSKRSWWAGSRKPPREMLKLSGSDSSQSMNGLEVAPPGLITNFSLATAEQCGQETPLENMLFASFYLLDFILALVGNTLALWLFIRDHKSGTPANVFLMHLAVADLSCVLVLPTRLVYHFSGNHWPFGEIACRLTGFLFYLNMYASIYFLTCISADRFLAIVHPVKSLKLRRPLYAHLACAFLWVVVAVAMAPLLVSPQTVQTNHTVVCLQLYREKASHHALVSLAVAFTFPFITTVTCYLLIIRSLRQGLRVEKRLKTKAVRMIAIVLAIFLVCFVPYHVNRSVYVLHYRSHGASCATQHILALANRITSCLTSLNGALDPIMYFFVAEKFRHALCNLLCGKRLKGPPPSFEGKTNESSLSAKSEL
- ASSAY INFO: GloSensor cAMP assay, inhibition of forskolin-stimulated cAMP
- SETTINGS: read-out: cAMP IC50, HEK293, inhibition of 3 μM forskolin-stimulated cAMP
pIC50: −log10 of the molar value.
PROPERTY: pIC50

{"MOL": "O=C(O)CCc1c(C(=O)O)[nH]c2cc(Cl)cc(Cl)c12", "ASSAYED SYSTEM": "hGPR17L-R301H (Homo sapiens, UniProt Q13304, R301H)", "PROPERTY": "pIC50", "QUANTITATIVE READOUT": 8.00}

###

- ASSAYED SYSTEM: hGPR17L-D105N (Homo sapiens, UniProt Q13304, D105N)
- Sequence (Q13304 whole entry D105N): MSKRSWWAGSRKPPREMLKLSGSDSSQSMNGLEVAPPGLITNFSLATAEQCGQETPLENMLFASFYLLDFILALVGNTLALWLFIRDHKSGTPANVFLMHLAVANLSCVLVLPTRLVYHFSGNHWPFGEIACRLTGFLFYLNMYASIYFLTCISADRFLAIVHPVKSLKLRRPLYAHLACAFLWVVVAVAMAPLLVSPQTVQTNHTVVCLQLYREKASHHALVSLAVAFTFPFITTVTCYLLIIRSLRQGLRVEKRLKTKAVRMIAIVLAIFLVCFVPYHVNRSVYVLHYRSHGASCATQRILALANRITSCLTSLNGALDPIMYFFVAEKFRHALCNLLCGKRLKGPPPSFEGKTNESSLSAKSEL
- ASSAY INFO: GloSensor cAMP assay, inhibition of forskolin-stimulated cAMP
- SETTINGS: read-out: cAMP IC50, HEK293, inhibition of 3 μM forskolin-stimulated cAMP
pIC50: −log10 of the molar value.

{"COMPOUND": "O=C(O)CCc1c(C(=O)O)[nH]c2cc(Cl)cc(Cl)c12 [MDL29,951]", "pIC50": 7.74}

###

- ASSAYED SYSTEM: hGPR17L-F43L (Homo sapiens, UniProt Q13304, F43L)
- Construct: expressed in transfected cells; host or cells: HEK293 (ATCC CRL-1573), transient transfection
- Sequence (Q13304 whole entry F43L): as the sequence (Q13304 whole entry R301H) above, with F43L, H301R counted along it
- ASSAY INFO: GloSensor stimulatory cAMP assay with pertussis toxin pretreatment
- Format: cell-based
- SETTINGS: read-out: Stimulatory cAMP EC50
pEC50: −log10 of the molar value.

{"MOL": "O=C(O)CCc1c(C(=O)O)[nH]c2cc(Cl)cc(Cl)c12", "ASSAYED SYSTEM": "hGPR17L-F43L (Homo sapiens, UniProt Q13304, F43L)", "pEC50": 5.21}

###

- ASSAYED SYSTEM: hGPR17L-R248Q (Homo sapiens, UniProt Q13304, R248Q)
- Sequence (Q13304 whole entry R248Q): as the sequence (Q13304 whole entry D105N) above, with N105D, R248Q counted along it
- ASSAY INFO: GloSensor cAMP assay, inhibition of forskolin-stimulated cAMP
- SETTINGS: read-out: cAMP IC50, HEK293, inhibition of 3 μM forskolin-stimulated cAMP
pIC50: −log10 of the molar value.
PROPERTY: pIC50

{"COMPOUND": "O=C(O)CCc1c(C(=O)O)[nH]c2cc(Cl)cc(Cl)c12 [MDL29,951]", "PROPERTY": "pIC50", "QUANTITATIVE READOUT": 8.72}

###

- ASSAYED SYSTEM: hGPR17L-A131T (Homo sapiens, UniProt Q13304, A131T)
- Construct: expressed in transfected cells; host or cells: HEK293 (ATCC CRL-1573), transient transfection
- Sequence (Q13304 whole entry A131T): as the sequence (Q13304 whole entry D105N) above, with N105D, A131T counted along it
- ASSAY INFO: Calcium flux assay
- Assay type: cell-based
- SETTINGS: read-out: Ca2+ EC50, HEK293, calcium mobilization

{"MOL": "O=C(O)CCc1c(C(=O)O)[nH]c2cc(Cl)cc(Cl)c12", "EC50, nM": 230}

###

- ASSAYED SYSTEM: hGPR17L-V103M-Tango (Homo sapiens, UniProt Q13304, V103M)
- Construct: Tango fusion module
- Sequence (Q13304 whole entry V103M, the tested form may be a part): as the sequence (Q13304 whole entry R301H) above, with V103M, H301R counted along it
- ASSAY INFO: Tango β-arrestin recruitment assay
- SETTINGS: read-out: β-arrestin recruitment EC50, HTLA cells

{"COMPOUND": "O=C(O)CCc1c(C(=O)O)[nH]c2cc(Cl)cc(Cl)c12 [MDL29,951]", "EC50 / nM": 210}

###

- ASSAYED SYSTEM: hGPR17L-WT (Homo sapiens)
- Sequence (Q13304 whole entry): as the sequence (Q13304 whole entry D105N) above, with N105D counted along it
- ASSAY INFO: GloSensor cAMP assay, inhibition of forskolin-stimulated cAMP
- SETTINGS: read-out: cAMP IC50, HEK293, inhibition of 3 μM forskolin-stimulated cAMP
pIC50: −log10 of the molar value.
PROPERTY: pIC50

{"MOL": "O=C(O)CCc1c(C(=O)O)[nH]c2cc(Cl)cc(Cl)c12", "QUANTITATIVE READOUT": 8.52}

###

- ASSAYED SYSTEM: hGPR17L-R248Q-Tango (Homo sapiens, UniProt Q13304, R248Q)
- Construct: Tango fusion module
- Sequence (Q13304 whole entry R248Q, the tested form may be a part): as the sequence (Q13304 whole entry D105N) above, with N105D, R248Q counted along it
- ASSAY INFO: Tango β-arrestin recruitment assay
- SETTINGS: read-out: β-arrestin recruitment EC50, HTLA cells
PROPERTY: EC50

{"MOL": "O=C(O)CCc1c(C(=O)O)[nH]c2cc(Cl)cc(Cl)c12", "ASSAYED SYSTEM": "hGPR17L-R248Q-Tango (Homo sapiens, UniProt Q13304, R248Q)", "RESULT": "28 nM"}

###

- ASSAYED SYSTEM: hGPR17L-A131T-Tango (Homo sapiens, UniProt Q13304, A131T)
- Construct: Tango fusion module
- Sequence (Q13304 whole entry A131T, the tested form may be a part): as the sequence (Q13304 whole entry D105N) above, with N105D, A131T counted along it
- ASSAY INFO: Tango β-arrestin recruitment assay
- SETTINGS: read-out: β-arrestin recruitment EC50, HTLA cells
pEC50: −log10 of the molar value.
PROPERTY: pEC50

{"MOL": "O=C(O)CCc1c(C(=O)O)[nH]c2cc(Cl)cc(Cl)c12", "QUANTITATIVE READOUT": 6.55}

###

- ASSAYED SYSTEM: hGPR17L-R248Q (Homo sapiens, UniProt Q13304, R248Q)
- Construct: expressed in transfected cells; host or cells: HEK293 (ATCC CRL-1573), transient transfection
- ASSAY INFO: Calcium flux assay
- Format: cell-based
- SETTINGS: read-out: Ca2+ EC50, HEK293, calcium mobilization
PROPERTY: EC50 (nM)

{"MOL": "O=C(O)CCc1c(C(=O)O)[nH]c2cc(Cl)cc(Cl)c12", "PROPERTY": "EC50", "QUANTITATIVE READOUT": 120}

###

- ASSAYED SYSTEM: hGPR17L-G354V (Homo sapiens, UniProt Q13304, G354V)
- Sequence (Q13304 whole entry G354V): as the sequence (Q13304 whole entry D105N) above, with N105D, G354V counted along it
- ASSAY INFO: GloSensor cAMP assay, inhibition of forskolin-stimulated cAMP
- SETTINGS: read-out: cAMP IC50, HEK293, inhibition of 3 μM forskolin-stimulated cAMP
pIC50: −log10 of the molar value.

{"MOL": "O=C(O)CCc1c(C(=O)O)[nH]c2cc(Cl)cc(Cl)c12", "ASSAYED SYSTEM": "hGPR17L-G354V (Homo sapiens, UniProt Q13304, G354V)", "pIC50": 8.34}

###

- ASSAYED SYSTEM: hGPR17L-V103M (Homo sapiens, UniProt Q13304, V103M)
- Sequence (Q13304 whole entry V103M): as the sequence (Q13304 whole entry D105N) above, with V103M, N105D counted along it
- ASSAY INFO: GloSensor cAMP assay, inhibition of forskolin-stimulated cAMP
- SETTINGS: read-out: cAMP IC50, HEK293, inhibition of 3 μM forskolin-stimulated cAMP
PROPERTY: IC50 (nM)

{"MOL": "O=C(O)CCc1c(C(=O)O)[nH]c2cc(Cl)cc(Cl)c12", "UNIT SPEC": "nM", "QUANTITATIVE READOUT": 0.57}

###

- ASSAYED SYSTEM: hGPR17L-WT-Tango (Homo sapiens, UniProt Q13304)
- Construct: Tango fusion module
- Sequence (Q13304 whole entry, the tested form may be a part): as the sequence (Q13304 whole entry D105N) above, with N105D counted along it
- ASSAY INFO: Tango β-arrestin recruitment assay
- SETTINGS: read-out: β-arrestin recruitment EC50, HTLA cells
pEC50: −log10 of the molar value.
PROPERTY: pEC50

{"MOL": "O=C(O)CCc1c(C(=O)O)[nH]c2cc(Cl)cc(Cl)c12", "ASSAYED SYSTEM": "hGPR17L-WT-Tango (Homo sapiens, UniProt Q13304)", "QUANTITATIVE READOUT": 7.02}

###

- ASSAYED SYSTEM: hGPR17L-A131T (Homo sapiens, UniProt Q13304, A131T)
- ASSAY INFO: GloSensor cAMP assay, inhibition of forskolin-stimulated cAMP
- SETTINGS: read-out: cAMP IC50, HEK293, inhibition of 3 μM forskolin-stimulated cAMP
pIC50: −log10 of the molar value.

{"COMPOUND": "O=C(O)CCc1c(C(=O)O)[nH]c2cc(Cl)cc(Cl)c12 [MDL29,951]", "pIC50": 8.31}

###

- ASSAYED SYSTEM: hGPR17L-G136S (Homo sapiens, UniProt Q13304, G136S)
- Construct: expressed in transfected cells; host or cells: HEK293 (ATCC CRL-1573), transient transfection
- Sequence (Q13304 whole entry G136S): as the sequence (Q13304 whole entry D105N) above, with N105D, G136S counted along it
- ASSAY INFO: GloSensor cAMP assay, inhibition of forskolin-stimulated cAMP
- Format: cell-based
- SETTINGS: read-out: cAMP IC50, HEK293, inhibition of 3 μM forskolin-stimulated cAMP
pIC50: −log10 of the molar value.

{"COMPOUND": "O=C(O)CCc1c(C(=O)O)[nH]c2cc(Cl)cc(Cl)c12 [MDL29,951]", "pIC50": 5.89}
